# Test system: 997537-175-T-J1-PDC complex spheroid viability
# assay_protocol: Anticancer human tumor 997537-175-T-J1-PDC patient-derived colon adenocarcinoma cell line growth inhibition [GQUAD]
# experimental_context: second compound 0.0316 µM; first compound 1 µM; stronger effect = lower value
Lab note: compare viability, T/C with 80%, writing met if less and not met if equal or more.

Below are worked cases with known answers.
O=C(c1cc(Cc2n[nH]c(=O)c3ccccc23)ccc1F)N1CCN(C(=O)C2CC2)CC1 + Cc1cnc(CNC(=O)c2c(=O)c3ccc(N4CCCN(C)CC4)nc3n3c2sc2ccccc23)cn1 | not met
COc1ncnc(C2CC2)c1-c1ncc2cnn(Cc3ccc(-c4nc(C(F)(F)F)cn4C(C)C)cc3)c2n1 + Cc1cnc(CNC(=O)c2c(=O)c3ccc(N4CCCN(C)CC4)nc3n3c2sc2ccccc23)cn1 | met
CC1COCCN1c1cc(C2(S(C)(=N)=O)CC2)nc(-c2ccnc3[nH]ccc23)n1 (configuration not stated) + CN(C)c1ccc(Nc2c3ccc(NC(=O)CCN4CCCC4)cc3nc3cc(NC(=O)CCN4CCCC4)ccc23)cc1 | not met
CC1COCCN1c1cc(C2(O)CC3CCC(C2)O3)c2cnn(-c3ccn[nH]3)c2n1 (configuration not stated) + Cc1[nH]c2ccc(F)cc2c1-c1nc2c3cccnc3c3ncccc3c2[nH]1 | met
CC1COCCN1c1cc(-c2ccnn2C)c2ccnc(-c3ccn[nH]3)c2n1 (configuration not stated) + Cc1cnc(CNC(=O)c2c(=O)c3ccc(N4CCCN(C)CC4)nc3n3c2sc2ccccc23)cn1 | met

is_below(viability, T/C, 80%) for O=C(NO)c1cnc(N2CCN(S(=O)(=O)c3ccc4ccccc4c3)CC2)nc1 + CN(C)c1ccc(Nc2c3ccc(NC(=O)CCN4CCCC4)cc3nc3cc(NC(=O)CCN4CCCC4)ccc23)cc1 ?
met

Strictly below 80% in viability, T/C? CC(C)n1c(=O)n(C)c2cnc3cc(F)c(-c4ccc(OCCCN5CCCCC5)nc4)cc3c21 + CN(C)c1ccc(Nc2c3ccc(NC(=O)CCN4CCCC4)cc3nc3cc(NC(=O)CCN4CCCC4)ccc23)cc1
not met

====

# Test system: 997537-175-T-J1-PDC complex spheroid viability
# assay_protocol: Anticancer human tumor 997537-175-T-J1-PDC cell line growth inhibition [GQUAD];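 note: spheroids exposed to the agents for 7 days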;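 for viability, T/C: 100% = DMSO vehicle control viability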
# experimental_context: second compound 1 µM; first compound 0.316 µM; stronger effect = lower value
What viability, T/C was measured for each of the following?

CC1COCCN1c1cc(C2(S(C)(=N)=O)CC2)nc(-c2ccnc3[nH]ccc23)n1 (centres undefined) + Cc1[nH]c2ccc(F)cc2c1-c1nc2c3cccnc3c3ncccc3c2[nH]1 | 76.8%

Provide each entry's viability, T/C from the list below.
1. CC(C)(O)C1CCC(Nc2ccc3ncc(-c4cccc(C(F)(F)F)c4)n3n2)CC1 (centres undefined) + Cc1cnc(CNC(=O)c2c(=O)c3ccc(N4CCCN(C)CC4)nc3n3c2sc2ccccc23)cn1
2. Cn1ncnc1[C@H]1c2n[nH]c(=O)c3cc(F)cc(c23)N[C@@H]1c1ccc(F)cc1 + Cc1[nH]c2ccc(F)cc2c1-c1nc2c3cccnc3c3ncccc3c2[nH]1
3. CC(C)n1c(=O)n(C)c2cnc3cc(F)c(-c4ccc(OCCCN5CCCCC5)nc4)cc3c21 + CN(C)c1ccc(Nc2c3ccc(NC(=O)CCN4CCCC4)cc3nc3cc(NC(=O)CCN4CCCC4)ccc23)cc1
4. C#Cc1c(F)ccc2cc(O)cc(-c3ncc4c(N5CC6CCC(C5)N6)nc(OCC56CCCN5CC(F)C6)nc4c3F)c12 (centres undefined) + Cc1cnc(CNC(=O)c2c(=O)c3ccc(N4CCCN(C)CC4)nc3n3c2sc2ccccc23)cn1
5. COc1cc(C2c3cc4c(cc3C(OC3OC5COC(C)OC5C(O)C3O)C3COC(=O)C23)OCO4)cc(OC)c1O (centres undefined) + Cc1[nH]c2ccc(F)cc2c1-c1nc2c3cccnc3c3ncccc3c2[nH]1

1. 91.4%
2. 87.8%
3. 88.9%
4. 85%
5. 88.5%

====

Please respond with reported IC50 for every item in the list.
# System: 997537-175-T-J1-PDC complex spheroid viability
# assay_protocol: Anticancer human tumor 997537-175-T-J1-PDC cell line growth inhibition [GQUAD];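 note: spheroids exposed to the agents for 7 days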
# experimental_context: curve of first compound; second compound 0.0316 µM
One number for each entry, in nM.

Give me IC50 for each of these molecules, listed below.
1. CC(C)(O)C1CCC(Nc2ccc3ncc(-c4cccc(C(F)(F)F)c4)n3n2)CC1 (stereo unspecified) + CN(C)c1ccc(Nc2c3ccc(NC(=O)CCN4CCCC4)cc3nc3cc(NC(=O)CCN4CCCC4)ccc23)cc1
2. O=C(NO)c1cnc(N2CCN(S(=O)(=O)c3ccc4ccccc4c3)CC2)nc1 + Cc1cnc(CNC(=O)c2c(=O)c3ccc(N4CCCN(C)CC4)nc3n3c2sc2ccccc23)cn1
3. C#Cc1c(F)ccc2cc(O)cc(-c3ncc4c(N5CC6CCC(C5)N6)nc(OCC56CCCN5CC(F)C6)nc4c3F)c12 (stereo unspecified) + Cc1[nH]c2ccc(F)cc2c1-c1nc2c3cccnc3c3ncccc3c2[nH]1
4. CCCS(=O)(=O)Nc1ccc(F)c(C(=O)c2c[nH]c3ncc(-c4ccc(Cl)cc4)cc23)c1F + Cc1[nH]c2ccc(F)cc2c1-c1nc2c3cccnc3c3ncccc3c2[nH]1
5. O=C(NO)c1cnc(N2CCN(S(=O)(=O)c3ccc4ccccc4c3)CC2)nc1 + CN(C)c1ccc(Nc2c3ccc(NC(=O)CCN4CCCC4)cc3nc3cc(NC(=O)CCN4CCCC4)ccc23)cc1
6. O=C(NO)c1cnc(N2CCN(S(=O)(=O)c3ccc4ccccc4c3)CC2)nc1 + Cc1[nH]c2ccc(F)cc2c1-c1nc2c3cccnc3c3ncccc3c2[nH]1
7. CC1COCCN1c1cc(C2(S(C)(=N)=O)CC2)nc(-c2ccnc3[nH]ccc23)n1 (stereo unspecified) + Cc1[nH]c2ccc(F)cc2c1-c1nc2c3cccnc3c3ncccc3c2[nH]1

1. 2030
2. 1930
3. 1870
4. 5740
5. 2410
6. 89.2
7. 9530

Query for 997537-175-T-J1-PDC complex spheroid viability: what IC50 does the record show for C=CCn1c(=O)c2cnc(Nc3ccc(N4CCN(C)CC4)cc3)nc2n1-c1cccc(C(C)(C)O)n1 + Cc1cnc(CNC(=O)c2c(=O)c3ccc(N4CCCN(C)CC4)nc3n3c2sc2ccccc23)cn1 ?
1870

====

# Tested on: 997537-175-T-J1-PDC complex spheroid viability
# assay_protocol: Anticancer human tumor 997537-175-T-J1-PDC cell line growth inhibition [GQUAD];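 note: spheroids exposed to the agents for 7 days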;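 for viability, T/C: 100% = DMSO vehicle control viability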
# experimental_context: second compound 1 µM; first compound 3.16 µM; stronger effect = lower value
Please assign no (0) whenever viability, T/C is at or above 90%, and yes (1) whenever it is below.

CC1COCCN1c1cc(C2(S(C)(=N)=O)CC2)nc(-c2ccnc3[nH]ccc23)n1 (stereo not given) + Cc1[nH]c2ccc(F)cc2c1-c1nc2c3cccnc3c3ncccc3c2[nH]1 | yes (1)

Is 90% strictly greater than the molecule's reported viability, T/C? molecule: O=C(c1cc(Cc2n[nH]c(=O)c3ccccc23)ccc1F)N1CCN(C(=O)C2CC2)CC1 + Cc1[nH]c2ccc(F)cc2c1-c1nc2c3cccnc3c3ncccc3c2[nH]1
no (0)

Does the reported viability, T/C of C=CC(=O)N1CCN(c2nc(=O)n(-c3c(C)ccnc3C(C)C)c3nc(-c4c(O)cccc4F)c(F)cc23)C(C)C1 (stereo not given) + Cc1cnc(CNC(=O)c2c(=O)c3ccc(N4CCCN(C)CC4)nc3n3c2sc2ccccc23)cn1 stay below 90%?
no (0)

Strictly below 90%: is that where viability, T/C of COc1ncnc(C2CC2)c1-c1ncc2cnn(Cc3ccc(-c4nc(C(F)(F)F)cn4C(C)C)cc3)c2n1 + Cc1[nH]c2ccc(F)cc2c1-c1nc2c3cccnc3c3ncccc3c2[nH]1 sits?
no (0)

Lab note: confirm whether the reported viability, T/C for this molecule is below 90%, equality not counting. molecule: CC1COCCN1c1cc(C2(S(C)(=N)=O)CC2)nc(-c2ccnc3[nH]ccc23)n1 (stereo not given) + Cc1cnc(CNC(=O)c2c(=O)c3ccc(N4CCCN(C)CC4)nc3n3c2sc2ccccc23)cn1
yes (1)

====

# Test system: 997537-175-T-J1-PDC complex spheroid viability
# assay_protocol: Anticancer human tumor 997537-175-T-J1-PDC cell line growth inhibition [GQUAD];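 note: spheroids exposed to the agents for 7 days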;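 for viability, T/C: 100% = DMSO vehicle control viability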
# experimental_context: second compound 0.0316 µM; first compound 0.1 µM; stronger effect = lower value
Please go through the items and note down their viability, T/C.
Answers are plain numbers, in %.

Worked cases, answers included:
CC1COCCN1c1cc(C2(O)CC3CCC(C2)O3)c2cnn(-c3ccn[nH]3)c2n1 (configuration not stated) + CN(C)c1ccc(Nc2c3ccc(NC(=O)CCN4CCCC4)cc3nc3cc(NC(=O)CCN4CCCC4)ccc23)cc1 | 74.6
CC1COCCN1c1cc(-c2ccnn2C)c2ccnc(-c3ccn[nH]3)c2n1 (configuration not stated) + CN(C)c1ccc(Nc2c3ccc(NC(=O)CCN4CCCC4)cc3nc3cc(NC(=O)CCN4CCCC4)ccc23)cc1 | 78.5
CC(=O)O[C@H]1C(=O)[C@@]2(C)[C@H]([C@H](OC(=O)c3ccccc3)[C@]3(O)C[C@H](OC(=O)[C@H](O)[C@@H](NC(=O)c4ccccc4)c4ccccc4)C(C)=C1C3(C)C)[C@]1(OC(C)=O)CO[C@@H]1C[C@@H]2O + Cc1[nH]c2ccc(F)cc2c1-c1nc2c3cccnc3c3ncccc3c2[nH]1 | 93.3
O=c1[nH]cc(F)c(=O)[nH]1 + Cc1cnc(CNC(=O)c2c(=O)c3ccc(N4CCCN(C)CC4)nc3n3c2sc2ccccc23)cn1 | 87.6
CC(C)n1c(=O)n(C)c2cnc3cc(F)c(-c4ccc(OCCCN5CCCCC5)nc4)cc3c21 + CN(C)c1ccc(Nc2c3ccc(NC(=O)CCN4CCCC4)cc3nc3cc(NC(=O)CCN4CCCC4)ccc23)cc1 | 91.2
Nc1ccn(C2OC(CO)C(O)C2(F)F)c(=O)n1 (configuration not stated) + CN(C)c1ccc(Nc2c3ccc(NC(=O)CCN4CCCC4)cc3nc3cc(NC(=O)CCN4CCCC4)ccc23)cc1 | 104

# batch: return viability, T/C for each of the 3 compounds below
1. C=CC(=O)N1CCN(c2nc(=O)n(-c3c(C)ccnc3C(C)C)c3nc(-c4c(O)cccc4F)c(F)cc23)C(C)C1 (configuration not stated) + Cc1[nH]c2ccc(F)cc2c1-c1nc2c3cccnc3c3ncccc3c2[nH]1
2. O=C(NO)c1cnc(N2CCN(S(=O)(=O)c3ccc4ccccc4c3)CC2)nc1 + CN(C)c1ccc(Nc2c3ccc(NC(=O)CCN4CCCC4)cc3nc3cc(NC(=O)CCN4CCCC4)ccc23)cc1
3. CC(=O)O[C@H]1C(=O)[C@@]2(C)[C@H]([C@H](OC(=O)c3ccccc3)[C@]3(O)C[C@H](OC(=O)[C@H](O)[C@@H](NC(=O)c4ccccc4)c4ccccc4)C(C)=C1C3(C)C)[C@]1(OC(C)=O)CO[C@@H]1C[C@@H]2O + Cc1cnc(CNC(=O)c2c(=O)c3ccc(N4CCCN(C)CC4)nc3n3c2sc2ccccc23)cn1

89.9
88.2
32.2

// each listed compound needs a value for viability, T/C
1. CCCS(=O)(=O)Nc1ccc(F)c(C(=O)c2c[nH]c3ncc(-c4ccc(Cl)cc4)cc23)c1F + Cc1[nH]c2ccc(F)cc2c1-c1nc2c3cccnc3c3ncccc3c2[nH]1
2. CCCS(=O)(=O)Nc1ccc(F)c(C(=O)c2c[nH]c3ncc(-c4ccc(Cl)cc4)cc23)c1F + Cc1cnc(CNC(=O)c2c(=O)c3ccc(N4CCCN(C)CC4)nc3n3c2sc2ccccc23)cn1
3. Cc1cccc(N(C)C(=O)C2C(O)CCN2c2nc(C)cc(C(F)(F)F)c2C#N)c1 (configuration not stated) + Cc1[nH]c2ccc(F)cc2c1-c1nc2c3cccnc3c3ncccc3c2[nH]1

[107, 50.8, 82.7]

Need viability, T/C for each of these compounds.
1. COc1ncnc(C2CC2)c1-c1ncc2cnn(Cc3ccc(-c4nc(C(F)(F)F)cn4C(C)C)cc3)c2n1 + Cc1cnc(CNC(=O)c2c(=O)c3ccc(N4CCCN(C)CC4)nc3n3c2sc2ccccc23)cn1
2. CC(C)(O)C1CCC(Nc2ccc3ncc(-c4cccc(C(F)(F)F)c4)n3n2)CC1 (configuration not stated) + Cc1cnc(CNC(=O)c2c(=O)c3ccc(N4CCCN(C)CC4)nc3n3c2sc2ccccc23)cn1
3. C=CCn1c(=O)c2cnc(Nc3ccc(N4CCN(C)CC4)cc3)nc2n1-c1cccc(C(C)(C)O)n1 + Cc1cnc(CNC(=O)c2c(=O)c3ccc(N4CCCN(C)CC4)nc3n3c2sc2ccccc23)cn1
4. C#Cc1c(F)ccc2cc(O)cc(-c3ncc4c(N5CC6CCC(C5)N6)nc(OCC56CCCN5CC(F)C6)nc4c3F)c12 (configuration not stated) + Cc1cnc(CNC(=O)c2c(=O)c3ccc(N4CCCN(C)CC4)nc3n3c2sc2ccccc23)cn1
5. COc1ccc([C@@H](O)c2cc(-c3ncnc4cc(N5CCOCC5)ccc34)c(F)cc2Cl)nn1 + Cc1[nH]c2ccc(F)cc2c1-c1nc2c3cccnc3c3ncccc3c2[nH]1

[78.4, 66.9, 76.5, 85.6, 98.5]
